Data credit: ChEMBL document CHEMBL4190189

Experiment: Cytotoxicity against human EPG85-257RDB cells assessed as reduction in cell viability after 5 days by SRB assay
Type: functional, cell-based
Conditions: 120 h
pIC50: −log10 of the molar value.
Readout label: pIC50

> print(dat)
                           smiles.structure  recorded.value
1  CC(=O)O[C@]12C[C@H](C)[C@H](OC(=O)Oc3ccccc3)[C@@H]1/C=C(/C)CC[C@H]1[C@@H](/C=C(\C)C2=O)C1(C)C            5.63

---

Molecular target: ATP-dependent translocase ABCB1 (Homo sapiens)
Sequence (P08183 whole entry): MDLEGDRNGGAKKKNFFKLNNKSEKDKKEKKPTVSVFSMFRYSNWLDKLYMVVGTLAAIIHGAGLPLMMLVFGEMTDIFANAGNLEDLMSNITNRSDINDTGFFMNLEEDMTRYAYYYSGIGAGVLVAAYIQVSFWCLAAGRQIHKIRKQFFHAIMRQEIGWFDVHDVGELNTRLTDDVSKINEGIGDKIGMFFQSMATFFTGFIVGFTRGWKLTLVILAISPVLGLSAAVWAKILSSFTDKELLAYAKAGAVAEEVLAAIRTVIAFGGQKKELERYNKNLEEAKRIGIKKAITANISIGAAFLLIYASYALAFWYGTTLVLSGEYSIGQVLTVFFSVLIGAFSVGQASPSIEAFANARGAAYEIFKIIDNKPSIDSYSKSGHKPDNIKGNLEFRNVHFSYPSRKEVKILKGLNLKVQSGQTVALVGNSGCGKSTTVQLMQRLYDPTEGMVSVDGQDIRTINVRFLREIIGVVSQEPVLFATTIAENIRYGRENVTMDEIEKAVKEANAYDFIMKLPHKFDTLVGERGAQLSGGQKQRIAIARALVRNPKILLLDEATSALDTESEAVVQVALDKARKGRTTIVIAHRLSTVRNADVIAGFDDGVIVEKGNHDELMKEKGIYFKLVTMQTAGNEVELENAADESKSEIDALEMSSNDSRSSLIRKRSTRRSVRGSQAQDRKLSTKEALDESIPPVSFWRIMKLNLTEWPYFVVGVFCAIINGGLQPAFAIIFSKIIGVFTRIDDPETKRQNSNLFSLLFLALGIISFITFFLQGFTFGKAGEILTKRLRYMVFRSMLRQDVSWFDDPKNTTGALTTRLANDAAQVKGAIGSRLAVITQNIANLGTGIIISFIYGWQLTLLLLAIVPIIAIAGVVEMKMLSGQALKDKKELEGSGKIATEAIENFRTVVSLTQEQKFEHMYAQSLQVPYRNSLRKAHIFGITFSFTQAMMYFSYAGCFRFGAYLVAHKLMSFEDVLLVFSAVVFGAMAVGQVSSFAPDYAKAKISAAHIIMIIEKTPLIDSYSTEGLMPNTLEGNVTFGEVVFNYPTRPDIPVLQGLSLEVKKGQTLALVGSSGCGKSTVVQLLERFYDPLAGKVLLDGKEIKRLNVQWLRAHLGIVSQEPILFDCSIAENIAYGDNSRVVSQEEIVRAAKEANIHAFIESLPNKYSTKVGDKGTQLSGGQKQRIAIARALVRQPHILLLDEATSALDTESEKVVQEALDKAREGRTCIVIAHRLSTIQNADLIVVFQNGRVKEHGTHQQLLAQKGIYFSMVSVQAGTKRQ
Assay: Modulation of human ABCB1 expressed in mouse L5178Y cells assessed as fluorescence activity ratio at 2 uM pretreated for 10 mins followed by rhodamine-123 addition measured after 20 mins by flow cytometry (reference value: 0.87)
Assay type: cell-based
Ratio values, listed per item
Readout label: Ratio

> print(dat)
                            smiles.structure  recorded.value
 1  CC(=O)O[C@]12C[C@H](C)[C@H](OC(=O)c3ccc(C(F)(F)F)cc3)[C@@H]1/C=C(/C)CC[C@H]1[C@@H](/C=C(\C)C2=O)C1(C)C             9.4
 2  CC(=O)O[C@]12C[C@H](C)[C@H](OC(=O)c3cccc(C)c3)[C@@H]1/C=C(/C)CC[C@H]1[C@@H](/C=C(\C)C2=O)C1(C)C             2.2
 3  CC(=O)O[C@]12C[C@H](C)[C@H](OC(=O)c3ccc4ccccc4c3)[C@@H]1/C=C(/C)CC[C@H]1[C@@H](/C=C(\C)C2=O)C1(C)C            11.9
 4  COc1cccc(C(=O)O[C@H]2[C@@H](C)C[C@]3(O)C(=O)/C(C)=C/[C@@H]4[C@H](CC/C(C)=C\[C@@H]23)C4(C)C)c1              12
 5  COc1cccc(C(=O)O[C@H]2[C@@H](C)C[C@]3(OC(C)=O)C(=O)/C(C)=C/[C@@H]4[C@H](CC/C(C)=C\[C@@H]23)C4(C)C)c1            26.1
 6  CC(=O)O[C@]12C[C@H](C)[C@H](OC(=O)/C=C/c3ccccc3)[C@@H]1/C=C(/C)CC[C@H]1[C@@H](/C=C(\C)C2=O)C1(C)C            28.6
 7  C/C1=C/[C@H]2[C@@H](OC(=O)c3ccc(C(F)(F)F)cc3)[C@@H](C)C[C@]2(O)C(=O)/C(C)=C/[C@@H]2[C@H](CC1)C2(C)C               3
 8  CCOC(=O)O[C@H]1[C@@H](C)C[C@]2(OC(C)=O)C(=O)/C(C)=C/[C@@H]3[C@H](CC/C(C)=C\[C@@H]12)C3(C)C             3.1
 9  C/C1=C/[C@H]2[C@@H](OC(=O)c3ccc4ccccc4c3)[C@@H](C)C[C@]2(O)C(=O)/C(C)=C/[C@@H]2[C@H](CC1)C2(C)C             8.3
10  CC(=O)O[C@]12C[C@H](C)[C@H](OC(=O)Oc3ccccc3)[C@@H]1/C=C(/C)CC[C@H]1[C@@H](/C=C(\C)C2=O)C1(C)C            10.8
11  CC(=O)O[C@]12C[C@H](C)[C@H](OC(=O)c3ccc(-c4ccccc4)cc3)[C@@H]1/C=C(/C)CC[C@H]1[C@@H](/C=C(\C)C2=O)C1(C)C            11.6
12  CC(=O)O[C@]12C[C@H](C)[C@H](OC(=O)C34CC5CC(CC(C5)C3)C4)[C@@H]1/C=C(/C)CC[C@H]1[C@@H](/C=C(\C)C2=O)C1(C)C            12.6
13  C/C1=C/[C@H]2[C@@H](OC(=O)c3ccc(-c4ccccc4)cc3)[C@@H](C)C[C@]2(O)C(=O)/C(C)=C/[C@@H]2[C@H](CC1)C2(C)C             4.8
14  COc1ccccc1C(=O)O[C@H]1[C@@H](C)C[C@]2(OC(C)=O)C(=O)/C(C)=C/[C@@H]3[C@H](CC/C(C)=C\[C@@H]12)C3(C)C            33.3
